Values from the RNAGym collection of RNA variant scans (doi:10.7554/elife.80360)

B1: HDV Ribozyme (parent)
chain: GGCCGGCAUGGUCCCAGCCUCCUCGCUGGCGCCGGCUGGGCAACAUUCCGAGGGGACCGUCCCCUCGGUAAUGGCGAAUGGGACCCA

# Variants of: B1
# Assay: self-cleavage, relative activity (ratio to wild type); higher = more cleavage; co-transcriptional
Property measured: self-cleavage

// solved cases for self-cleavage follow
{"Mutant code": "A16U G25U", "Observed value": 0.166}
{"Mutant code": "G39C C49G", "Observed value": 0.219}
{"Mutant code": "C32A G68C", "Observed value": 0.113}
{"Mutant code": "G34C A43G", "Observed value": 0}
{"Mutant code": "G50U G76C", "Observed value": 1.19}
{"Mutant code": "G2U U20A", "Observed value": 0.0563}
{"Mutant code": "G35A A77G", "Observed value": 0.277}
{"Mutant code": "U27G C41U", "Observed value": 0.831}
{"Mutant code": "C32G C75G", "Observed value": 0}
{"Mutant code": "C13G C49U", "Observed value": 0}

Please report self-cleavage for every entry that follows.
1. C30A U72G
2. A51C A78U
3. G50U G80U
4. C22U C66G
5. C57U C64A

[0.185, 0.133, 0.2, 0.814, 0.901]

Please report self-cleavage for every entry that follows.
1. C13U A83G
2. C7A G10C
3. G67U G74A
4. C32G A71U
5. G38A C75A
6. A8C C57G
7. U27G A83C
8. G5A C49U

0.122
0.201
0.379
0.115
0.115
0.87
0.831
0.18

Please report self-cleavage for every entry that follows.
1. C15A C24G
2. C4G G54U
3. G38C G52A

1. 0.032
2. 0.464
3. 0.322

Please report self-cleavage for every entry that follows.
1. U20G A77C
2. U12G C32U
3. G6A U69A
4. G10C G55A
5. C18G G59C

[0.178, 0.399, 0.525, 1.11, 0.26]

Please report self-cleavage for every entry that follows.
1. C13A U79A
2. U37A C57G
3. C66G G68C
4. U72C
5. C32G U72C
6. G25A C63U
7. C14A A77C

[0.119, 0.213, 0.554, 0.589, 0.104, 0.289, 0.115]

Please report self-cleavage for every entry that follows.
1. A16G A43C
2. C32A C61A

0.277
0.162

Please report self-cleavage for every entry that follows.
1. U12A C58A
2. G52A G82C
3. G6C G28C
4. C4A U79G
5. C19A G53U
6. G25C G35U
7. G52A A77U
8. U23G A87U

1: 0.312; 2: 0.362; 3: 0; 4: 0; 5: 0.157; 6: 0.0692; 7: 0.694; 8: 0.715

Please report self-cleavage for every entry that follows.
1. C49A G67C
2. C41G C49U
3. C19A G76A
4. C30U C86U
5. C33G G68C
6. U20C U65A

1: 1.04; 2: 0.608; 3: 0.185; 4: 0.795; 5: 0.0875; 6: 0.166
